Tested On: KRAS G12D (Homo sapiens, UniProt P01116, G12D)
Sequence (P01116 1-169 isoform P01116-2 G12D): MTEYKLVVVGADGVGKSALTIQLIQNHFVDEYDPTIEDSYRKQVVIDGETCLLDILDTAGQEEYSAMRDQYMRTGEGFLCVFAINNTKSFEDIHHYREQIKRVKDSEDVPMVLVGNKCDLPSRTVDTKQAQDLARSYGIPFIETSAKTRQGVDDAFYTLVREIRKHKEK
Procedure Details: In-vitro RAS-RAF binding assay (RRB), HTRF/FRET
Type: biochemical
Set-up: Biotinylated KRAS protein amino acids 1-169 (produced at Erasca); made in house
Conditions Used: Table 2, average of multiple runs of each compound; read-out: Inhibition of RAS-RAF Binding (in-vitro) KRAS (G12D) IC50
Experimental Readout: IC50 (nM)
One number for each entry, in nM.

Worked set:
# Compound, Tested On, Experimental Readout, Unit Annotation, Measured
records = [
    ("C#Cc1c(F)ccc2cc(O)cc(-c3ncc4c(N5CC6CCC(C5)N6)nc(OC[C@@H]5CCCN5CCCOCCC(=O)N[C@H](C(=O)N5C[C@H](O)C[C@H]5C(=O)N[C@@H](C)c5ccc(-c6c(F)cncc6F)cc5)C(C)(C)C)nc4c3F)c12 [Example 27]", "KRAS G12D (Homo sapiens, UniProt P01116, G12D)", "IC50", "nM", 10.8),
    ("CC(C)[C@H](C(=O)N1C[C@H](O)C[C@H]1C(=O)N[C@@H](C)c1ccc(-c2c(F)cc(F)cc2F)cc1)c1cc(N2CC3(CCN(CCOc4nc(N5CC6CCC(C5)N6)c5cc(Cl)c(-c6ccc(F)c7sc(N)c(C#N)c67)c(F)c5n4)CC3)C2)no1 [Example 67]", "KRAS G12D (Homo sapiens, UniProt P01116, G12D)", "IC50", "nM", 20),
    ("C#Cc1c(F)ccc2cc(O)cc(-c3ncc4c(N5CC6CCC(C5)N6)nc(OC[C@@H]5CCCN5CCCOCCC(=O)N[C@H](C(=O)N5C[C@H](O)C[C@H]5C(=O)N[C@@H](C)c5ccc(-c6scnc6C)cc5)C(C)(C)C)nc4c3F)c12 [Example 13]", "KRAS G12D (Homo sapiens, UniProt P01116, G12D)", "IC50", "nM", 13.6),
    ("C#Cc1c(F)ccc2cc(O)cc(-c3ncc4c(N5CC6CCC(C5)N6)nc(OCCN5CCC(Oc6cc([C@H](C(=O)N7C[C@H](O)C[C@H]7C(=O)N[C@@H](C)c7ccc(-c8c(F)cccc8F)cc7)C(C)C)on6)CC5)nc4c3F)c12 [Example 100]", "KRAS G12D (Homo sapiens, UniProt P01116, G12D)", "IC50", "nM", 14),
    ("C[C@H](NC(=O)[C@@H]1C[C@@H](O)CN1C(=O)[C@@H](NC(=O)CCOCCCN1CCC[C@H]1COc1nc(N2CC3CCC(C2)N3)c2cc(Cl)c(-c3ccc(F)c4sc(N)c(C#N)c34)c(F)c2n1)C(C)(C)C)c1ccc(-c2c(F)cc(F)cc2F)cc1 [Example 37]", "KRAS G12D (Homo sapiens, UniProt P01116, G12D)", "IC50", "nM", 19.4),
    ("C#Cc1c(F)ccc2cc(O)cc(-c3ncc4c(N5CC6CCC(C5)N6)nc(OC[C@@H]5CCCN5CCCOCCCC(=O)N[C@H](C(=O)N5C[C@H](O)C[C@H]5C(=O)N[C@@H](C)c5ccc(-c6c(F)cccc6F)cc5)C(C)(C)C)nc4c3F)c12 [Example 34]", "KRAS G12D (Homo sapiens, UniProt P01116, G12D)", "IC50", "nM", 9.91),
    ("C[C@H](NC(=O)[C@@H]1C[C@@H](O)CN1C(=O)[C@@H](NC(=O)CCOCCCN1CCC[C@H]1COc1nc(N2CC3CCC(C2)N3)c2cc(Cl)c(-c3ccc(F)c4sc(N)c(C#N)c34)c(F)c2n1)C(C)(C)C)c1ccc(-c2c(F)cc(F)cc2F)cc1 (single isomer, unassigned) [Example 97]", "KRAS G12D (Homo sapiens, UniProt P01116, G12D)", "IC50", "nM", 8.6),
]

Please examine the following record next.
The reported IC50 of the compound CC(C)[C@@H](C(=O)N1C[C@H](O)C[C@H]1C(=O)N[C@@H](C)c1ccc(-c2c(F)cc(F)cc2F)cc1)c1cc(OCC2(F)CCN(CCOc3nc(N4CC5CCC(C4)N5)c4cc(Cl)c(-c5ccc(F)c6sc(N)c(C#N)c56)c(F)c4n3)CC2)no1 [Example 69] was 35.2

----------
Tested On: KRAS (WT) (Homo sapiens, UniProt P01116)
Construct: Biotinylated KRAS protein amino acids 1-169 (produced at Erasca); made in house
Sequence (P01116 1-169 isoform P01116-2): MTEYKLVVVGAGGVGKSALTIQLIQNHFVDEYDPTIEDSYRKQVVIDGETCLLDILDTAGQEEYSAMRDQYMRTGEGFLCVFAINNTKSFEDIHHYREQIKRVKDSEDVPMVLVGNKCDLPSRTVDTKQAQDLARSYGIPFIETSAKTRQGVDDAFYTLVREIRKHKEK
Procedure Details: In-vitro RAS-RAF binding assay (RRB), HTRF/FRET
Assay type: biochemical
Conditions Used: Table 2, average of multiple runs of each compound; read-out: Inhibition of RAS-RAF Binding (in-vitro) KRAS (WT) IC50
Protocol: Biotinylated KRAS protein amino acids 1-169 (produced at […]) is labeled with streptavidin-terbium (lanthanide cryptate donor fluorophore) in assay buffer (50 mM HEPES, pH 7.5, 100 mM NaCl, 1 mM MgCl2, 1 mM DTT) at a final concentration of 30 nM. […] A portion of this mixture is transferred to a white 384-well plate (20 uL per well in duplicate) and read on an HTRF compatible plate reader (ClarioSTAR). Fluorescent resonance energy transfer (FRET) is measured at equilibrium. […]
Answer each item with its documented pIC50.
Numbers only, as −log10 of the molar value.

Worked set:
# Compound, Measured
records = [
    ("C[C@H](NC(=O)[C@@H]1C[C@@H](O)CN1C(=O)[C@@H](NC(=O)CCOCCCN1CCC[C@H]1COc1nc(N2CC3CCC(C2)N3)c2cc(Cl)c(-c3ccc(F)c4sc(N)c(C#N)c34)c(F)c2n1)C(C)(C)C)c1ccc(-c2ccccc2Cl)cc1 [Example 25]", 6.97),
    ("C[C@H](NC(=O)[C@@H]1C[C@@H](O)CN1C(=O)[C@@H](NC(=O)CCOCCCN1CCCC1COc1nc(N2CC3CCC(C2)N3)c2cc(Cl)c(-c3ccc(F)c4sc(N)c(C#N)c34)c(F)c2n1)C(C)(C)C)c1ccc(-c2c(F)cccc2F)cc1 (some centres unmarked) [Example 19]", 7.11),
    ("C#Cc1c(F)ccc2cc(O)cc(-c3ncc4c(N5CC6CCC(C5)N6)nc(OC[C@@H]5CCCN5CCCOCCC(=O)N[C@H](C(=O)N5C[C@H](O)C[C@H]5C(=O)N[C@@H](C)c5ccc(-c6c(F)cc(F)cc6F)cc5)C(C)(C)C)nc4c3F)c12", 7.60),
]

The following compounds each have a reported value; give each one's pIC50.
1. C#Cc1c(F)ccc2cc(O)cc(-c3ncc4c(N5CC6CCC(C5)N6)nc(OCCN5CCC(COc6cc([C@H](C(=O)N7C[C@H](O)C[C@H]7C(=O)N[C@@H](C)c7ccc(-c8c(F)cc(F)cc8F)cc7)C(C)C)on6)CC5)nc4c3F)c12
2. C[C@H](NC(=O)[C@@H]1C[C@@H](O)CN1C(=O)[C@@H](NC(=O)CCCCN1CCC[C@H]1COc1nc(N2CC3CCC(C2)N3)c2cnc(-c3cc(O)cc4cccc(F)c34)c(F)c2n1)C(C)(C)C)c1ccc(-c2ccccc2)cc1
3. Cc1ncsc1-c1ccc([C@H](C)NC(=O)[C@@H]2C[C@@H](O)CN2C(=O)[C@@H](NC(=O)CCOCCCN2CCC[C@H]2COc2nc(N3CC4CCC(C3)N4)c3cc(C(F)(F)F)c(-c4ccc(F)c5sc(N)c(C#N)c45)cc3n2)C(C)(C)C)cc1
4. Cc1ncsc1-c1ccc([C@H](C)NC(=O)[C@@H]2C[C@@H](O)CN2C(=O)[C@@H](NC(=O)CCOCCCN2CCC[C@H]2COc2nc(N3CC4CCC(C3)N4)c3cnc(-c4cc(O)cc5cccc(F)c45)c(F)c3n2)C(C)(C)C)cc1

Reply text:
[5.08, 6.32, 7.20, 6.80]

----------
Tested On: KRAS G12D (Homo sapiens, UniProt P01116, G12D)
Procedure Details: In-vitro RAS-RAF binding assay (RRB), HTRF/FRET
Type: biochemical
Parameters: Biotinylated KRAS protein amino acids 1-169 (produced at Erasca); made in house
Conditions Used: Table 2, average of multiple runs of each compound; read-out: Inhibition of RAS-RAF Binding (in-vitro) KRAS (G12D) IC50
Answer each item with its documented IC50.
Numbers only, in nM.

# Compound, Measured
records = [
    ("C#Cc1c(F)ccc2cc(O)cc(-c3ncc4c(N5CC6CCC(C5)N6)nc(OCCN5CCC(COc6cc(C(C(=O)N7C[C@H](O)C[C@H]7C(=O)N[C@@H](C)c7ccc(-c8scnc8C)cc7)C(C)C)on6)CC5)nc4c3F)c12 (stereo in doubt) [Example 35]", 12.1),
    ("C#Cc1c(F)ccc2cc(O)cc(-c3ncc4c(N5CC6CCC(C5)N6)nc(OC[C@@H]5CCCN5CCCOCCC(=O)N[C@H](C(=O)N5C[C@H](O)C[C@H]5C(=O)N[C@@H](C)c5ccc(-c6cc(F)c(F)c(F)c6)cc5)C(C)(C)C)nc4c3F)c12 [Example 52]", 7.84),
    ("C#Cc1c(F)ccc2cc(O)cc(-c3ncc4c(N5CC6CCC(C5)N6)nc(OC[C@@H]5CCCN5CCCOCCC(=O)N[C@H](C(=O)N5C[C@H](O)C[C@H]5C(=O)N[C@@H](C)c5ccc(N6CCC[C@H]6C#N)cc5)C(C)(C)C)nc4c3F)c12 [Example 33]", 7.48),
]

Please examine the following record next.
The reported IC50 of the compound C#Cc1c(F)ccc2cc(O)cc(-c3ncc4c(N5CC6CCC(C5)N6)nc(OCCN5CCC6(CC5)CN(c5cc([C@H](C(=O)N7C[C@H](O)C[C@H]7C(=O)N[C@@H](C)c7ccc(-c8c(F)cccc8F)cc7)C(C)C)on5)C6)nc4c3F)c12 [Example 16] was 9.79

Data provenance is patent US20240293558A1.
